Reported % inhibition of XA binding at 10 μM* values for a set of compounds
- System: xanthurenic acid receptor
- METHOD: Screening: displacement of [3H]-XA binding to synaptic membranes at a fixed concentration
- PROTOCOL_CONDITIONS: compound at 10 μM; 200 nM [3H]-XA, synaptic membranes; xanthurenic acid set arbitrarily to 100%
- Protocol: If this concentration produces the same or greater displacement than the same concentration of non-radiolabelled XA, then an IC50 is determined. […] The incubation time is 25 min. […] The filters are placed in scintillation vials to which 5 ml of Rotiszint® (Roth) are added and the vials are counted in a Beckman LS6000sc liquid scintillation counter. […] The percentage inhibition of binding that the synthetic compounds produce is calculated for each compound in relation to its positive control.
Numeric only. Scale: %

N#Cc1cc(CCc2ccccc2)cc2c(O)cc(C(=O)O)nc12 [Compound 65d] : 18
CNc1cccc2c(O)cc(C(=O)O)nc12.Cl [Compound 103b] : 3
Nc1cc(Cl)cc2c(O)cc(C(=O)O)nc12 [Compound 117d] : 97

(Q) Item under review: Cl.O=C(O)c1cc(N2CCNCC2)c2cccc(O)c2n1 [Compound 87c] . Reported % inhibition of XA binding at 10 μM*?
(A) 183

(Q) // lookup % inhibition of XA binding at 10 μM* for Cl.Nc1cccc2c(N3CCCCC3)cc(C(=O)O)nc12 [Compound 101c]
(A) 20
